Test system: Trypanosoma cruzi
Test name: Trypanosoma cruzi phosphomannomutase and mannose-1-phosphate guanylyltransferase assay
Type: functional
Parameters: scale not given: direction of the effect not stated beside the values
Condition notes: 10 µM
Readout: Percent Effect (%)
Give a bare numeral; the unit % is implied.

See these solved cases before continuing.
                           compound        test_system         readout  numeric_value
0  N#Cc1ncn(CC(=O)Nc2cc(Cl)ccc2F)n1  Trypanosoma cruzi  Percent Effect           1.59
1    O=C(NCC1(CO)CC1)c1cccc2ccccc12  Trypanosoma cruzi  Percent Effect           -4.9

Ask: Output measured Percent Effect for this item: CCCc1nc(N2CCN(CC)CC2)c2c(n1)c(C)nn2CC
Reply: 5.01

Ask: Output measured Percent Effect for this item: Cc1ccc(C(=O)N2CCC3(CC2)NC(=O)CC3c2ccccc2)cn1 (stereo unspecified)
Reply: 0.965

Ask: Output measured Percent Effect for this item: O=C(CN1CCCCC1Cn1cncn1)NCCC1=CCCCC1 (stereo unspecified)
Reply: -2.55

Ask: Output measured Percent Effect for this item: CC(C)c1noc(C(C)N2CCN(Cc3ccsc3)CC2)n1 (stereo unspecified)
Reply: -3.46
